# Test system: VCaP cells
# assaySummary: VCaP growth inhibition assay
# Format: cell-based
# recordedConditions: 30 pM R1881, 9 days, CTG
# key: entry, value: IC50

Use these answered entries as a reference point.
molecule	metricName	readoutValue
CC(=O)N1CCc2c(c(N3CCCc4cc(-c5cnn(C)c5)c(C(F)F)cc43)nn2C2CCC(OC3CCN(c4ncc(C(=O)NC5C(C)(C)C(Oc6ccc(C#N)c(Cl)c6)C5(C)C)cn4)CC3)CC2)C1 (centres unmarked) [Compound 339]	IC50	≤ 0.1 nM
CC(=O)N1CCc2c(c(N3CCCc4cc(-c5cnn(C)c5)c(C(F)F)cc43)nn2C2CCN(CC3C(C)CN(c4ncc(C(=O)NC5C(C)(C)C(Oc6ccc(C#N)c(C)c6)C5(C)C)cn4)CC3C)CC2)C1 (centres unmarked)	IC50	≤ 0.1 nM
COc1cc(OC2C(C)(C)C(NC(=O)c3ccc(N4CCN(CCc5ccc(-c6cc7cccc(-c8nn(C9CCOCC9)c9c8CN(C(C)=O)CC9)c7cn6)cn5)CC4)cc3)C2(C)C)ccc1C#N (centres unmarked)	IC50	≤ 0.1 nM
CC(=O)N1CCc2c(c(N3CCCc4cc(-c5cnn(C)c5)c(C(F)F)cc43)nn2C2CCN(Cc3ncc(C(=O)NC4C(C)(C)C(Oc5ccc(C#N)c(Cl)c5)C4(C)C)cn3)CC2)C1 (centres unmarked)	IC50	1 to 100 nM

# input Any idea what its IC50 is? The molecule is CC(=O)N1CCc2c(c(N3CCCc4cc(-c5cnn(C)c5)c(C(F)F)cc43)nn2C2CC3(C2)CC2(CCN(c4ncc(C(=O)NC5C(C)(C)C(Oc6ccc(C#N)c(Cl)c6)C5(C)C)cn4)CC2)C3)C1 (centres unmarked)
# output 1 to 100 nM

Values from patent US20250129070A1
